These entries and their values trace back to PubChem BioAssay (Tox21).

- Assay Comment: qHTS assay to identify small molecule antagonists of the farnesoid-X-receptor (FXR) signaling pathway - cell viability counter screen (AID 743221); also: nearly all actives have a fitted effect of over 50% in size
- Run Parameters: FXR-bla HEK293T viability, CellTiter-Glo luminescence, 16 h; series mostly up to 62.6 µM
Records with an inconclusive call do not appear. Calls of active or inactive are those of the source. Calls follow the shape of the dose curve; as a rule, active = well fitted cell-killing curve with a large enough effect in the repeat runs (not every such curve was filed as active); inconclusive = weak or mixed curves, or effect the other way; inactive = no such curve, though single readings can be large or run the other way.
Allowed answers: active, inactive

Some solved entries appear below for comparison.
{"columns": ["Compound", "Category"],
 "data": [
  ["Cc1c(C)c2c(c(C)c1OC(=O)CCC(=O)O)CC[C@@](C)(CCC[C@H](C)CCC[C@H](C)CCCC(C)C)O2", "inactive"],
  ["COC(=O)C1=C(C)NC(C)=C(C(=O)OCC(C)C)C1c1ccccc1[N+](=O)[O-] (stereo not drawn)", "inactive"],
  ["Nc1c(Cl)cc(Cl)cc1Cl", "inactive"],
  ["CCCCCCCC(=O)[O-].CCCCCCCC(=O)[O-].[Zn+2]", "inactive"],
  ["N=C1C=CC(=C(c2ccc(N)cc2)c2ccc(N)cc2)C=C1", "inactive"]
]}

query: GET /call?item= CC(NN)c1ccccc1 (stereo not drawn) returns the recorded outcome of this test.
result: inactive

query: Again, but for CCCCN(CCCC)c1ccc(C(=O)c2ccccc2C(=O)O)c(O)c1
result: active

query: Again, but for Oc1ccc2c(c1)-c1ccccc1C2
result: inactive

query: Again, but for CCCCCCCCCCCCCCCC[N+](C)(C)CCN(Cc1ccc(OC)cc1)c1ncccn1
result: active

query: Again, but for O=C1CCCc2c1cc1ccc3cccc4ccc2c1c34
result: inactive

query: Again, but for S=c1[nH]c2ccccc2s1
result: inactive

query: Again, but for ON=C1CCCC1
result: inactive

query: Again, but for O=C(O)c1c(Cl)cccc1Cl
result: inactive

---

The entries below are paired with their reported Potency.
- Assay Comment: qHTS assay to identify small molecule agonists of the sonic hedgehog signaling (Shh) pathway - cell viability counter screen (AID 1259366); also: potency is read from the fitted curve at half-maximal effect; nearly all actives have a fitted effect of over 50% in size
- Run Parameters: NIH/3T3 Gli1-Luc viability, CellTiter-Fluor, 24 h; series mostly up to 92.4 µM
Records with an inconclusive call do not appear. Calls of active or inactive are those of the source. Calls come from the whole dose curve; as a rule, active = well fitted cell-killing curve with a large enough effect in the repeat runs; inconclusive = weak or mixed curves, or effect the other way; inactive = flat fitted curve, though single readings scatter.

Answered examples (3):
{"columns": ["Compound", "Quantity Measured", "Value"],
 "data": [
  ["CC1=C(C(=O)OC(C)C)C(c2cccc([N+](=O)[O-])c2)C(C(=O)OC2CN(C(c3ccccc3)c3ccccc3)C2)=C(N)N1 (centres undefined)", "Potency", "23.7 µM (active)"],
  ["O=C1c2ccccc2Cc2ccccc21", "Potency", "6.91 µM (active)"],
  ["COc1cccc2c1C(=O)c1c(O)c3c(c(O)c1C2=O)C[C@@](O)(C(=O)CO)C[C@@H]3O[C@H]1C[C@H](N)[C@H](O[C@@H]2CCCCO2)[C@H](C)O1", "Potency", "11.9 µM (active)"]
]}

query: Quick check: Potency of CCOC(=O)O[C@H](C)OC(=O)c1ccc2c(c1)cc(C(=O)NC1CCN(C(C)C)CC1)n2Cc1cc(-c2ccc(Cl)s2)on1 ?
result: 12.8 µM (active)

---

- Target Desc: Thyrotropin receptor (Homo sapiens) (UniProt P16473)
- Sequence (P16473 whole entry, looked up): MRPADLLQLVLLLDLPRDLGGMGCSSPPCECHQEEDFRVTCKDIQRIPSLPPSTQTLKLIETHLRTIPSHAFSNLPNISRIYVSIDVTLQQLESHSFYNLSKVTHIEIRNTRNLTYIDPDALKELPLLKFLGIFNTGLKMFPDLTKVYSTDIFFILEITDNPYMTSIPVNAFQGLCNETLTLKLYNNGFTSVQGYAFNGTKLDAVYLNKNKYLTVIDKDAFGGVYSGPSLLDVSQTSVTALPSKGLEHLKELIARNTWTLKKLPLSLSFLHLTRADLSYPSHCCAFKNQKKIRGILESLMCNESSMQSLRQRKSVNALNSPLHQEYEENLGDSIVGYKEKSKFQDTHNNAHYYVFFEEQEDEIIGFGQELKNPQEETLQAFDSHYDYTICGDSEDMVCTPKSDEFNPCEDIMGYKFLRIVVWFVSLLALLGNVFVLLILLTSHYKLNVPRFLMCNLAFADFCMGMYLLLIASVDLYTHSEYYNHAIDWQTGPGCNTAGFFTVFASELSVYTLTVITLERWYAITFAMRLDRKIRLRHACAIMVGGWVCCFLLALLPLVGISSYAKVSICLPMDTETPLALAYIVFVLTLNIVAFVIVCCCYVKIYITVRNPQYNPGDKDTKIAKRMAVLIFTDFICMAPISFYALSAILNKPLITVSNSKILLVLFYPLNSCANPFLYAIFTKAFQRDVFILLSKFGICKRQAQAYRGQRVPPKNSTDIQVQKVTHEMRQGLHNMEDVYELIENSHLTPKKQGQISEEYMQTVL
- Assay Comment: qHTS assay to identify small molecule antagonists of the thyroid stimulating hormone receptor (TSHR) signaling pathway (AID 1259385); also: nearly all actives have a fitted effect of over 20% in size
- Run Parameters: TSHR-HEK293 cAMP HTRF, TSH-stimulated antagonist mode; series mostly up to 92.4 µM
Inconclusive results are not listed. Activity calls are given as the source filed them. The call rests on the fitted dose curve.
Allowed answers: yes (1) = active, no (0) = inactive

Some solved entries appear below for comparison.
{"columns": ["Smiles String", "Category"],
 "data": [
  ["CS(=O)(=O)CCNCc1ccc(-c2ccc3ncnc(Nc4ccc(OCc5cccc(F)c5)c(Cl)c4)c3c2)o1", "no (0)"],
  ["COC(=O)c1cc(Cl)ccc1OC", "no (0)"],
  ["NC(=O)C1(N2CCCCC2)CCN(CCCN2c3ccccc3CCc3ccc(Cl)cc32)CC1", "yes (1)"],
  ["Oc1ccc(N=Nc2ccccc2)cc1", "no (0)"],
  ["Cc1cccc(S(=O)(=O)O)c1C", "no (0)"]
]}

query: GET /call?item= CSc1ccc(/C=C2/C(C)=C(CC(=O)O)c3cc(F)ccc32)cc1 returns the recorded outcome of this test.
result: no (0)

query: Again, but for Cc1ccc(O)c(C(C)(C)C)c1
result: no (0)

query: Again, but for CCCC/C=C/CCCCO
result: no (0)

query: Again, but for CCOC(=O)O[C@H](C)OC(=O)c1ccc2c(c1)cc(C(=O)NC1CCN(C(C)C)CC1)n2Cc1cc(-c2ccc(Cl)s2)on1
result: yes (1)

query: Again, but for O=C1C=CC(=O)N1c1ccc(Cc2ccc(N3C(=O)C=CC3=O)cc2)cc1
result: yes (1)

query: Again, but for COc1cccc2c1C(=O)c1c(O)c3c(c(O)c1C2=O)C[C@@](O)(C(=O)CO)C[C@@H]3O[C@H]1C[C@H](N)[C@H](O[C@@H]2CCCCO2)[C@H](C)O1
result: no (0)

query: Again, but for O=Cc1cc(O)ccc1Br
result: no (0)

query: Again, but for C=CC(=O)OCC(CO)(COC(=O)C=C)COC(=O)C=C
result: no (0)

query: Again, but for Fc1ccc([C@@H]2CCNC[C@H]2COc2ccc3c(c2)OCO3)cc1
result: no (0)

query: Again, but for CO[Si](CCCNc1ccccc1)(OC)OC
result: no (0)

query: Again, but for CCCCCCCC/C=C\CCCCCCCCOCCO
result: yes (1)

query: Again, but for O=C(Nc1cccc([N+](=O)[O-])c1)c1cc2ccccc2cc1O
result: no (0)

---

- Target Desc: Peroxisome proliferator-activated receptor gamma (Homo sapiens) (UniProt P37231)
- Sequence (P37231 whole entry, looked up): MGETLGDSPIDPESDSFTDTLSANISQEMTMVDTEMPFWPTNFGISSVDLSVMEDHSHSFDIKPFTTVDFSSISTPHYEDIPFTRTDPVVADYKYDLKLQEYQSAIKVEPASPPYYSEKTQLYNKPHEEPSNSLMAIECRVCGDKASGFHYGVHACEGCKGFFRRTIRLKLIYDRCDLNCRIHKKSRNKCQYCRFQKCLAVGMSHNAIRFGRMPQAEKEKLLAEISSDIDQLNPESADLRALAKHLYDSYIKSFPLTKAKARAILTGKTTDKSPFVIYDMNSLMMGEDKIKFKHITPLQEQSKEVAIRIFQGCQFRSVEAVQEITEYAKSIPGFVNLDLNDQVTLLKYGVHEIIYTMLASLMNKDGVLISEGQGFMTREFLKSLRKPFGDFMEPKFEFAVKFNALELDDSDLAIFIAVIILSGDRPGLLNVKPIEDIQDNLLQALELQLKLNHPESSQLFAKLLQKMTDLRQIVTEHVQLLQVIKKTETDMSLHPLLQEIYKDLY
- Assay Comment: qHTS assay to identify small molecule antagonists of the peroxisome proliferator-activated receptor gamma (PPARg) signaling pathway (AID 743191); also: nearly all actives have a fitted effect of over 30% in size; also: potency is read from the fitted curve at half-maximal effect
- Run Parameters: HEK293H PPARg-UAS-bla, beta-lactamase ratio, antagonist, 17 h; series mostly up to 62.6 µM
Records with an inconclusive call do not appear. Active and inactive are the calls of the source. Calls come from the whole dose curve.
Quantity Measured: Potency

Answered examples (5):
{"columns": ["Compound", "Potency"],
 "data": [
  ["COc1cc(/C=C/C(=O)O[C@H]2CC[C@]34C[C@]35CC[C@]3(C)[C@@H]([C@H](C)CCC=C(C)C)CC[C@@]3(C)[C@@H]5CC[C@H]4C2(C)C)ccc1O", "inactive"],
  ["c1ccc(CSCc2ccccc2)cc1", "inactive"],
  ["CC(=O)SC[C@@H](Cc1ccccc1)C(=O)NCC(=O)OCc1ccccc1", "inactive"],
  ["Oc1ccc(Cl)cc1Sc1cc(Cl)ccc1O", "13.3 µM (active)"],
  ["N#CC1(c2ccc(F)cc2)CCC(=O)CC1", "inactive"]
]}

query: Quick check: Potency of OCc1c[nH]c2ccccc12 ?
result: 12.3 µM (active)

query: Again, but for CCCCCCCCn1sc(Cl)c(Cl)c1=O
result: 49 µM (active)

query: Again, but for CCc1cc(Cc2cc(CC)c(N)c(CC)c2)cc(CC)c1N
result: 38.9 µM (active)

query: Again, but for CCCC1O[C@@H]2C[C@H]3[C@@H]4CCC5=CC(=O)C=C[C@]5(C)[C@H]4[C@@H](O)C[C@]3(C)[C@]2(C(=O)CO)O1 (stereo not given in full)
result: inactive

query: Again, but for Cc1onc(-c2ccccc2Cl)c1C(=O)N[C@@H]1C(=O)N2[C@@H]1SC(C)(C)[C@@H]2C(=O)O
result: inactive

---

- Assay Comment: Caspase-3/7 induction in HepG2 cells by small molecules, qHTS cell viability counter screen (AID 1346981); also: nearly all actives have a fitted effect of over 30% in size
- Run Parameters: CellTiter-Fluor fluorescence, 17 h; series mostly up to 92.4 µM
- Text: U.S. Tox21 Program National Center for Advancing Translational Sciences [NCATS] NIH Chemical Genomics Center [NCGC] U.S. Environmental Protection Agency [EPA] National Institutes of Environmental Health Sciences [NIEHS] National Toxicology Program [NTP] U.S. Food and Drug Administration [FDA] Tox21 Assay Overview: Apoptosis is a process of programmed cell death and plays a central role in the development of multicellular organisms. […]
Records with an inconclusive call do not appear. Active and inactive are the calls of the source. The call rests on the fitted dose curve; in most records, active means well fitted cell-killing curve with a large enough effect in the repeat runs; inconclusive means weak or mixed curves, or effect the other way; inactive means flat fitted curve, though single readings scatter.
Allowed answers: Y = active, N = inactive

Some solved entries appear below for comparison.
{"columns": ["Compound", "Category"],
 "data": [
  ["CCCCCCCCS(=O)C(C)Cc1ccc2c(c1)OCO2 (stereo not drawn)", "Y"],
  ["COC(=O)c1cc(Cl)ccc1OC", "N"],
  ["C=CC(=O)OCC(CO)(COCC(COC(=O)C=C)(COC(=O)C=C)COC(=O)C=C)COC(=O)C=C", "Y"],
  ["CCCCCCCC[N+](CCCCCCCC)(CCCCCCCC)CCCCCCCC", "Y"]
]}

query: GET /call?item= O=C1c2c(O)ccc(Nc3ccc(CCO)cc3)c2C(=O)c2c([N+](=O)[O-])ccc(O)c21 returns the recorded outcome of this test.
result: Y

query: Again, but for OCCN1CCN(CC/C=C2/c3ccccc3Sc3ccc(C(F)(F)F)cc32)CC1
result: Y

query: Again, but for O=c1[nH]sc2cc(Cl)ccc12
result: N
